- Procedure details: in vivo
- Conditions: female, rat
Reported property: Cmax (ng/mL)
Quick reminder: number only, in ng/mL, skip the unit.

Given smiles	Unit string	Reported result
CC(C)C[C@H](NC(=O)CNC(=O)[C@H](Cc1ccc(O)cc1)NC(=O)[C@H](CO)NC(=O)[C@H](Cc1c[nH]c2ccccc12)NC(=O)[C@H](Cc1cnc[nH]1)NC(=O)[C@@H]1CCC(=O)N1)C(=O)N[C@@H](CCCN=C(N)N)C(=O)N1CCC[C@H]1C(=O)NCC(=O)O	ng/mL	654

Let us examine a further case.
**Query** Requested read-out: Cmax. Entry: CC(C)C[C@H](NC(=O)CNC(=O)[C@H](Cc1ccc(O)cc1)NC(=O)[C@H](CO)NC(=O)[C@H](Cc1c[nH]c2ccccc12)NC(=O)[C@H](Cc1cnc[nH]1)NC(=O)[C@@H]1CCC(=O)N1)C(=O)N[C@@H](CCCNC(=N)N)C(=O)N1CCC[C@H]1C(=O)NCC(N)=O
**Result** 3280

The measured values listed here are drawn from patent US8088734B2.
